study.system: T1, Canine IL-31RA ECD-10His (canine, biotin-labeled in the Octet assay (site not stated))
T1 construct: The ELISA and Octet protocols say only 'IL-31RA' or 'canine IL-31RA'; also called cIL-31RA; canine IL-31 receptor alpha extracellular domain, HIS-tagged
T1 chain: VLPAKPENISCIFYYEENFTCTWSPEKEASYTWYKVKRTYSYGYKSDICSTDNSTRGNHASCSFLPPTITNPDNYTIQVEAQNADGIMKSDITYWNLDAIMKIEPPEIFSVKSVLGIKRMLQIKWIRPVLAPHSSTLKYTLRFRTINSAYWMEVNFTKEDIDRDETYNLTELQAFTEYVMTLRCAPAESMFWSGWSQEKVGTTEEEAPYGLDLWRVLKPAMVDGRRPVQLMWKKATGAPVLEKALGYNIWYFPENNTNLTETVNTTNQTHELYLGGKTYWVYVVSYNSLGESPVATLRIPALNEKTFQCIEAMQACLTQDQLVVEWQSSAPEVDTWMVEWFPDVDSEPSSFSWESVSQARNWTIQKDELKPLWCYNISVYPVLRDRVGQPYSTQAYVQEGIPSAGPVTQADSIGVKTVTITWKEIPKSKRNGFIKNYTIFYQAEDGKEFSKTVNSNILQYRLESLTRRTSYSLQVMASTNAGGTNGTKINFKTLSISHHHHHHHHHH
protocol.text: BLI (Octet), biotin-labeled canine IL-31RA on SA biosensors
Listed here: items and their measured kon.
Respond with the bare value in M⁻¹ s⁻¹.

*Q* May I ask what kon has been recorded for c51F8VH4VL6 (antibody, V domains shown, Caninized antibody; chains tied by name to c51F8VH4-cIgGBm and c51F8VL6-cCK; also called c51F8VH4L6) VH: EVQLVQSGAEVVKPGASVKVSCTASGFNIKNTFIHWVRQRPGAGLDWIGRIDPANGNTKYAPKFQGRATLTADTSTNTAYMQLSSLRAGDIAVYYCARYYYVSSYFDVWGTGTLVTVSS VL: DIVMTQTPLSLSVSPGETASISCKASQSVTNDVTWFRQKPGQSPQLLIYSASNRYTGVPDRFSGSGSGTDFTLRISTVEADDTGVYYCQQDYSSPWTFGQGTKLEIKR ?
*A* 445000

*Q* May I ask what kon has been recorded for c51F8VH4VL7 (antibody, V domains shown, Caninized antibody; chains tied by name to c51F8VH4-cIgGBm and c51F8VL7-cCK; also called c51F8VH4L7) VH: EVQLVQSGAEVVKPGASVKVSCTASGFNIKNTFIHWVRQRPGAGLDWIGRIDPANGNTKYAPKFQGRATLTADTSTNTAYMQLSSLRAGDIAVYYCARYYYVSSYFDVWGTGTLVTVSS VL: DIVMTQTPLSLSVSPGETASISCKASQSVTNDVTWFRQKPGQSPKLLIYSASNRYTGVPDRFSGSGSGTDFTLRISTVEADDTGVYYCQQDYSSPWTFGQGTKLEIKR ?
*A* 416000

*Q* May I ask what kon has been recorded for Chimeric 51F8 (antibody, V domains shown, canine constant regions not specified; also called murine-canine chimeric 51F8) VH: EVQLQQSVAELVRPGASVKLSCTASGFNIKNTFIHWVKQRPEQGLEWIGRIDPANGNTKYAPKFQGRATLTADTSSNTAYLQLSSLTSEDTAIYYCARYYYVSSYFDVWGTGTTVTVSS VL: SIVMTQTPKFLLVSAGDRVTITCKASQSVTNDVTWYQQKPGQSPKLLIFSASNRYTGVPDRFTGSGYGTDFTFTISTVQAEDLAVYFCQQDYSSPWTFGGGTKLEIK ?
*A* 684000
